Target: human CLDN18.2 (human)
Assay: cell-based or functional assay
Endpoint Label: ADCC EC50, PBMC effector cells, NUGC-4 target cells (pM)
Report as a plain number; the unit pM is understood.

Recorded ADCC EC50, PBMC effector cells, NUGC-4 target cells for chimeric antibody xi28G3 (antibody, human IgG1, kappa, V domains shown, Mouse variable regions on human IgG1/kappa; defucosylated, expressed in FUT8-knockout CHO-S cells; also called chimeric 28G3) VH: EIQLQQTGPELVKPGASVTISCKTSGYSFTDYLMLWVKQSHGKSLEWIGNINPYYGRTTYNLKFKGKATLTVDRSSSTAYMQLNSLTSEDSAVYYCARDGYSLRNAMDYWGQGTSVTVSS VL: DIVMTQSPYSLSVSTGEKVTMSCKSSQSLFNSGNQKNYLAWYQQKPGQPPKLLIYGASTRESGVPDRFTGSGSGTDFTLTISSVQAEDLALYYCQNAHSYPYTFGGGTKLEIKR , please?
440

Recorded ADCC EC50, PBMC effector cells, NUGC-4 target cells for IMAB362 (antibody, human IgG1, kappa, V domains shown, Positive control, prepared in-house; also called Claudiximab; TMAB362 [sic]) VH: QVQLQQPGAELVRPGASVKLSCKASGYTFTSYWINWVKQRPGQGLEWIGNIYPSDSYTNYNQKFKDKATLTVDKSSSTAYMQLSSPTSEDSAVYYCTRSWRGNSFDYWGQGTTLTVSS VL: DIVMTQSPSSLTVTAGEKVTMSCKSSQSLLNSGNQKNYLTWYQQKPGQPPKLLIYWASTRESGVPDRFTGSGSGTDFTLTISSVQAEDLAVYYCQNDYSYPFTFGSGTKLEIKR , please?
37100

Recorded ADCC EC50, PBMC effector cells, NUGC-4 target cells for chimeric antibody xi40F6 (antibody, human IgG1, kappa, V domains shown, Mouse variable regions on human IgG1/kappa; defucosylated, expressed in FUT8-knockout CHO-S cells; also called chimeric 40F6) VH: QVQLKESGPGLVAPSQSLSITCTVSGFSLTSYGVYWVRQSPGKGLEWLGVVWAGGNTNYNSALMSRLSISKDNSKSQVFLKMNSLQTDDTAMYYCARDRGRLLAMDYWGQGTSVTVSS VL: DVVMTQSPSSLSVSAGEKVTMSCKSSQSLLNSGNQKNYLAWYQQKPGQPPKLLIYGASTRESGVPDRFTGSGSGTDFTLTISSVQAEDLAVYYCQNDHFFPFTFGSGTKLEIKR , please?
800

Recorded ADCC EC50, PBMC effector cells, NUGC-4 target cells for chimeric antibody xi34G6 (antibody, human IgG1, kappa, V domains shown, Mouse variable regions on human IgG1/kappa; defucosylated, expressed in FUT8-knockout CHO-S cells; also called chimeric 34G6) VH: QVQLKESGPDLVAPSQSLSITCTVSGFSLTSYGVHWVRQPPGKGLEWLVVIWSDGSTTYNSALKSRLSISKDNSKSQVFLKMNSLQTDDTAIYYCARHAYYGNSFDYWGQGTTLTVSS VL: DIVMTQSPSSLTVTAGEKVTMSCKSSQSLLNSGNQKSYLTWYQQKPGQPPKLLIYWASTRESGVPDRFTGSGSGTDFTLTISSVQAEDLAVYYCQNVYIFPLTFGAGTKLELKR , please?
620

Origin of the recorded values: patent US20240409629A1
